These entries and their values trace back to paper PMC7026882.

# System: MDCK-MDR1 cell monolayer
# EXPERIMENTAL PROTOCOL: MDCK-MDR1 cell monolayer permeability assay
# Format: in vitro ADME
# Text: As summarized in Table 1, we were encouraged to find that the initial ketone analogs prepared, namely, 15 (6-linked) and 20 (5-linked), were quite active in an O. volvulus molting assay we used as a primary indicator of antiparasitic activity[30],[31] and were only weakly active in a G2/M arrest,[32] indicative of the interaction with mammalian tubulin. […]
RESULT TYPE: MDCK-MDR1 Papp (A-B) (×10⁻⁶ cm/s)
Answers are plain numbers, in ×10⁻⁶ cm/s.

Req: Entry `COC(=O)Nc1nc2ccc(C(=O)c3cccc4c3B(O)OC4)cc2[nH]1` needs its MDCK-MDR1 Papp (A-B) filled in; supply it.
Resp: 56.6

----------
Please go through the items and note down their IC50.
# Tested on: mammalian tubulin (G2/M arrest)
# EXPERIMENTAL PROTOCOL: G2/M arrest assay, indicative of interaction with mammalian tubulin
# Format: cell-based
Answers are plain numbers, in nM.

Illustrative cases are given below, each with its answer.
COC(=O)Nc1nc2cc(C(=O)CCCc3ccc4c(c3)B(O)OC4(C)C)ccc2[nH]1
20
COC(=O)Nc1nc2ccc(C(=O)c3ccc(F)c4c3B(O)OC4)cc2[nH]1
30300
COC(=O)Nc1nc2cc(C(=O)c3ccc4c(c3)C(C)(C)OB4O)ccc2[nH]1
280

Now let's try a different one.
Req: Quote mammalian tubulin (G2/M arrest) IC50 for entry `COC(=O)Nc1nc2cc(C(=O)CCc3ccc4c(c3)B(O)OC4(C)C)ccc2[nH]1` .
Resp: 460

----------
# EXPERIMENTAL PROTOCOL: Pharmacokinetics in Mongolian gerbils
# Assay type: in vivo
# CONDITION DESCRIPTION: blood, 2 mg/kg; Mongolian gerbils, dose 2, IV; read-out: AUC0–24
So I've got a bunch of compounds here, and I need their AUC(0-t) values.
Numbers only, in ng·h/mL.

COC(=O)Nc1nc2cc(C(=O)c3ccc4c(c3)B(O)OC4)ccc2[nH]1 [compound 15]
880

Please go through the list and note AUC(0-t) for each compound.
1. COC(=O)Nc1nc2cc(C(=O)c3cccc4c3B(O)O[C@H]4C)ccc2[nH]1 (single isomer, unassigned) [compound 30]
2. COC(=O)Nc1nc2cc(C(=O)c3ccc4c(c3)COB4O)ccc2[nH]1 [compound 20]
3. COC(=O)Nc1nc2ccc(C(=O)c3cccc4c3B(O)OC4)cc2[nH]1 [compound 21]
4. COC(=O)Nc1nc2ccc(C(=O)c3ccc(F)c4c3B(O)OC4)cc2[nH]1 [compound 26]

Resp:
14600
1160
5950
18600

----------
# Tested on: mammalian tubulin (G2/M arrest)
# EXPERIMENTAL PROTOCOL: G2/M arrest assay, indicative of interaction with mammalian tubulin
# Type: cell-based
RESULT TYPE: pIC50
Answers are plain numbers, as −log10 of the molar value.

COC(=O)Nc1nc2ccc(C(=O)c3cc(F)cc4c3B(O)OC4)cc2[nH]1
4.66

Next up:
Req: # return pIC50 for `COC(=O)Nc1nc2ccc(C(=O)c3ccc(Cl)c4c3B(O)OC4)cc2[nH]1` , test system: mammalian tubulin (G2/M arrest)
Resp: 4.94

----------
# Tested on: P-gp (MDR1)
# EXPERIMENTAL PROTOCOL: MDCK-MDR1 cell monolayer permeability assay
# Format: in vitro ADME
# CONDITION DESCRIPTION: dog
Output criterion met for records whose Papp A→B is lower than 30 ×10⁻⁶ cm/s, criterion not met for records at or above 30 ×10⁻⁶ cm/s.

COC(=O)Nc1nc2ccc(C(=O)c3ccc(F)c4c3B(O)OC4)cc2[nH]1
criterion met

Req: Check if Papp A→B falls below 30 ×10⁻⁶ cm/s for COC(=O)Nc1nc2cc(C(=O)c3cccc4c3B(O)O[C@H]4C)ccc2[nH]1 (single isomer, unassigned) .
Resp: criterion not met

Req: Regarding `COC(=O)Nc1nc2cc(C(=O)c3cccc4c3COB4O)ccc2[nH]1` , kindly confirm whether its Papp A→B is beneath 30 ×10⁻⁶ cm/s.
Resp: criterion met

Req: Determine if `COC(=O)Nc1nc2cc(C(=O)c3ccc4c(c3)COB4O)ccc2[nH]1` shows Papp A→B strictly lower than 30 ×10⁻⁶ cm/s.
Resp: criterion met

Req: Please indicate whether the reported Papp A→B of `COC(=O)Nc1nc2cc(C(=O)c3ccc4c(c3)C(C)(C)OB4O)ccc2[nH]1` is strictly below 30 ×10⁻⁶ cm/s.
Resp: criterion met

----------
# EXPERIMENTAL PROTOCOL: Pharmacokinetics in Mongolian gerbils
# Format: in vivo
# CONDITION DESCRIPTION: blood, 10 mg/kg; Mongolian gerbils, dose 10, PO; read-out: Cmax
Consider the cut-off 500 ng/mL. If the recorded Cmax is strictly smaller, the label is rule met; if not, the label is rule not met.

Req: I wonder whether `COC(=O)Nc1nc2cc(C(=O)c3ccc4c(c3)B(O)OC4)ccc2[nH]1` has Cmax below 500 ng/mL. Can you tell?
Resp: rule met

Req: Please state whether Cmax is below 500 ng/mL for COC(=O)Nc1nc2cc(C(=O)c3cccc4c3B(O)O[C@H]4C)ccc2[nH]1 (single isomer, unassigned)
Resp: rule not met

Req: In the record for `COC(=O)Nc1nc2ccc(C(=O)c3ccc(F)c4c3B(O)OC4)cc2[nH]1` , is Cmax less than 500 ng/mL?
Resp: rule not met

Req: Confirm or reject: Cmax of `COC(=O)Nc1nc2cc(C(=O)c3ccc4c(c3)COB4O)ccc2[nH]1` lies strictly below 500 ng/mL
Resp: rule met

Req: Please indicate whether the reported Cmax of `COC(=O)Nc1nc2ccc(C(=O)c3cccc4c3B(O)OC4)cc2[nH]1` is strictly below 500 ng/mL.
Resp: rule not met

----------
# EXPERIMENTAL PROTOCOL: Pharmacokinetics in Mongolian gerbils
# Format: in vivo
# CONDITION DESCRIPTION: Mongolian gerbil, blood, 2 mg/kg; Table 3, IV, dose 2
RESULT TYPE: CLint scaled (mL/min/kg)
One number for each entry, in mL/min/kg.

Req: For the compound `COC(=O)Nc1nc2ccc(C(=O)c3cccc4c3B(O)OC4)cc2[nH]1` , give its reported CLint scaled.
Resp: 4.82

----------
# Test system: mammalian tubulin (G2/M arrest)
# EXPERIMENTAL PROTOCOL: G2/M arrest assay, indicative of interaction with mammalian tubulin
# Assay type: cell-based
# Excerpt: As summarized in Table 1, we were encouraged to find that the initial ketone analogs prepared, namely, 15 (6-linked) and 20 (5-linked), were quite active in an O. volvulus molting assay we used as a primary indicator of antiparasitic activity[30],[31] and were only weakly active in a G2/M arrest,[32] indicative of the interaction with mammalian tubulin. […]
RESULT TYPE: IC50 (µM)
Numbers only, in µM.

COC(=O)Nc1nc2cc(C(=O)c3ccc4c(c3)COB4O)ccc2[nH]1
9.8
COC(=O)Nc1nc2cc(C(=O)c3ccc(F)cc3)ccc2[nH]1 [compound 3, flubendazole, reference compound]
0.67
COC(=O)Nc1nc2cc(C(=O)c3ccc4c(c3)B(O)OC4)ccc2[nH]1
12.3

Could you report IC50 for every entry in the following list?
1. COC(=O)Nc1nc2cc(C(=O)c3cccc4c3B(O)O[C@@H]4C)ccc2[nH]1 (single isomer, unassigned)
2. COC(=O)Nc1nc2cc(C(=O)c3cccc4c3B(O)O[C@H]4C)ccc2[nH]1 (single isomer, unassigned)

Resp:
5.6
12.2

----------
# EXPERIMENTAL PROTOCOL: Pharmacokinetics in Mongolian gerbils
# Format: in vivo
# CONDITION DESCRIPTION: blood, 60 mg/kg; Table 3, PO, dose 60; read-out: AUC0-last
RESULT TYPE: AUC(0-t) (µg·h/mL)
One number for each entry, in µg·h/mL.

Req: Complete the entry with AUC(0-t) for COC(=O)Nc1nc2ccc(C(=O)c3cccc4c3B(O)OC4)cc2[nH]1 [compound 21]
Resp: 361

----------
# EXPERIMENTAL PROTOCOL: MDCK-MDR1 cell monolayer permeability assay
# Format: in vitro ADME
# CONDITION DESCRIPTION: dog
RESULT TYPE: Papp (×10⁻⁶ cm/s)
Answers are plain numbers, in ×10⁻⁶ cm/s.

Req: Identify measured Papp corresponding to `COC(=O)Nc1nc2ccc(C(=O)c3cccc4c3B(O)OC4)cc2[nH]1`
Resp: 56.6

----------
# EXPERIMENTAL PROTOCOL: Pharmacokinetics in Mongolian gerbils
# Format: in vivo
# CONDITION DESCRIPTION: blood, 10 mg/kg; Mongolian gerbils, dose 10, PO; read-out: AUC0–24
# AUC(0-t) >= 60000 ng·h/mL gives Criterion met, anything below gives Criterion not met

Req: Is reported AUC(0-t) greater than or equal to 60000 ng·h/mL here: `COC(=O)Nc1nc2cc(C(=O)c3ccc4c(c3)B(O)OC4)ccc2[nH]1`
Resp: Criterion not met
